- TEST TARGET: USP7 (Homo sapiens, UniProt Q93009, C315A)
- Construct: 0.25 nM His-His-USP7 (aa208-560, |C315A|) was incubated with compound; His-His (N)
- Sequence (Q93009 208-560 C315A): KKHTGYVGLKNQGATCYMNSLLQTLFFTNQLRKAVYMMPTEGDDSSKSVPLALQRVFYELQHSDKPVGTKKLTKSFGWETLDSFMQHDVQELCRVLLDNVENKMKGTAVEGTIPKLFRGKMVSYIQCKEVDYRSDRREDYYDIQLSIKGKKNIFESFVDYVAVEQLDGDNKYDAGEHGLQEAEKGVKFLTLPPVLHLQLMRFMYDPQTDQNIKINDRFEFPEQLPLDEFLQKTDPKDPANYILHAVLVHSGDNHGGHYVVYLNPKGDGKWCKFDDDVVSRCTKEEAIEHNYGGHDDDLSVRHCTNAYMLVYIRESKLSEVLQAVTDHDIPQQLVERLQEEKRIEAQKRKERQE
- ASSAY TEXT: Inhibition of USP7 by Fluorescence Intensity (FLINT) readings, Ubiquitin-Rhodamine-110 substrate
- Type: biochemical
- CONDITION: 0.25 nM His-His-USP7 (aa208-560), 60 minutes at 30° C. preincubation; Ki determined from IC50 according to Cer et al.
METRIC NAME: log10 Ki (log10 of the value in nM)
All values: log10 Ki [nM].

Worked cases, answers included:
- COMPOUND: "Nc1c(Oc2ccc(F)cc2)ncn(CC2(O)CCN(C(=O)[C@@H]3CCN(C(=O)c4sc(Br)c5c4OCCO5)C[C@H]3c3ccccc3)CC2)c1=O"
  TEST TARGET: "USP7 (Homo sapiens, UniProt Q93009, C315A)"
  log10 Ki: 1.15
- COMPOUND: "Cc1ccc(-c2ncc(C(=O)N3CC[C@@H](C(=O)N4CCC(O)(Cn5cnc(Oc6ccc(F)cc6)c(N)c5=O)CC4)[C@H](c4ccccc4)C3)n2C)cn1"
  TEST TARGET: "USP7 (Homo sapiens, UniProt Q93009, C315A)"
  log10 Ki: 0.86
- COMPOUND: "COc1cc(Oc2ncn(C[C@@]3(O)CCN(C(=O)[C@@H]4CCN(C(=O)c5sc(-c6ccc(C)nc6)nc5C)C[C@H]4c4ccccc4)CC3(F)F)c(=O)c2N)ccc1Cl"
  TEST TARGET: "USP7 (Homo sapiens, UniProt Q93009, C315A)"
  log10 Ki: 0.86
- COMPOUND: "Cc1nc(C2CCOCC2)sc1C(=O)N1CC[C@@H](C(=O)N2CC[C@](O)(Cn3cnc(Oc4ccc(F)cc4)c(N)c3=O)C(F)(F)C2)[C@H](c2ccccc2)C1"
  TEST TARGET: "USP7 (Homo sapiens, UniProt Q93009, C315A)"
  log10 Ki: 0.94
- COMPOUND: "Cc1ccc(-c2nc(C)c(C(=O)N3CC[C@@H](C(=O)N4CC[C@](O)(Cn5cnc(Oc6ccc(F)cc6)c(N)c5=O)C(F)(F)C4)[C@H](c4ccccc4)C3)s2)cn1"
  TEST TARGET: "USP7 (Homo sapiens, UniProt Q93009, C315A)"
  log10 Ki: 0.56
- COMPOUND: "Cc1nccc(CN2CC[C@@H](C(=O)N3CC[C@](O)(Cn4cnc(Oc5ccc(Cl)c(F)c5)c(N)c4=O)C(F)(F)C3)[C@H](c3ccccc3)C2)n1"
  TEST TARGET: "USP7 (Homo sapiens, UniProt Q93009, C315A)"
  log10 Ki: 1.28
- COMPOUND: "Cc1ccc(-c2nc(C)c(C(=O)N3CC[C@@H](C(=O)N4CCC(O)(Cn5cnc(Oc6ccc(CNC(=O)OC(C)(C)C)cc6)c(N)c5=O)CC4)[C@H](c4ccccc4)C3)s2)cn1"
  TEST TARGET: "USP7 (Homo sapiens, UniProt Q93009, C315A)"
  log10 Ki: 0.62
- COMPOUND: "Cc1ccc(-c2cccc(C(=O)N3CC[C@@H](C(=O)N4CCC(O)(Cn5cnc(Oc6ccc(F)cc6)c(N)c5=O)CC4)[C@H](c4ccccc4)C3)c2)cn1"
  TEST TARGET: "USP7 (Homo sapiens, UniProt Q93009, C315A)"
  log10 Ki: 0.66

Endpoint output: log10 Ki of Cc1ccnc(C(=O)N2CC[C@@H](C(=O)N3CCC(O)(Cn4cnc(Oc5ccc(F)cc5)c(N)c4=O)CC3)[C@H](c3ccccc3)C2)c1 . Value?
1.48

Also, COc1cc(Oc2ncn(C[C@@]3(O)CCN(C(=O)[C@@H]4CCN(Cc5cnc(C)cn5)C[C@H]4c4ccccc4)CC3(F)F)c(=O)c2N)ccc1F please.
0.89

Also, CC(C)(C)OC(=O)N1CC[C@@H](C(=O)N2CCC(O)(Cn3cnc(Oc4cccc(C(F)(F)F)c4)c(N)c3=O)CC2)[C@H](c2ccccc2)C1 please.
2.48

Also, Cc1nc(C2CC(F)(F)C2)sc1C(=O)N1CC[C@@H](C(=O)N2CCC(O)(Cn3cnc(Oc4ccc(F)cc4)c(N)c3=O)CC2)[C@H](c2ccccc2)C1 please.
1.05

Also, Cc1ccc(-c2cccc(NC(=O)N3CC[C@@H](C(=O)N4CCC(O)(Cn5cnc(Oc6ccc(F)cc6)c(N)c5=O)CC4)[C@H](c4ccccc4)C3)c2)cn1 please.
1.00

Also, Nc1c(Oc2ccc(F)cc2)ncn(CC2(O)CCN(C(=O)[C@@H]3CCN(S(=O)(=O)c4ccccc4)C[C@H]3c3ccccc3)CC2)c1=O please.
1.45
